assayComment: Chromatographic Hydrophobicity Index (CHI) and log PCHI determination
Type: physicochemical
recordedConditions: Table 2
measuredAttribute: CHI
Just the number, please.

O=C(Cc1cccc(I)c1)N1CCN(C(=O)c2cc(Cc3n[nH]c(=O)c4ccccc34)ccc2F)CC1 [c-3 (^127I)] : 66.7
O=C(CCc1ccc(I)cc1)N1CCN(C(=O)c2cc(Cc3n[nH]c(=O)c4ccccc34)ccc2F)CC1 [c-6 (^127I)] : 71.6
O=C(CCc1cccc(I)c1)N1CCN(C(=O)c2cc(Cc3n[nH]c(=O)c4ccccc34)ccc2F)CC1 [c-5 (^127I)] : 71.6

From here, focus on the item given below.
Give a short answer stating reported CHI for O=C(Cc1ccc(I)cc1)N1CCN(C(=O)c2cc(Cc3n[nH]c(=O)c4ccccc34)ccc2F)CC1 [c-4 (^127I)] . 66.7
